Target: recombinant human SAE enzyme (Homo sapiens (Human), UniProt Q9UBT2)
Sequence (Q9UBT2 whole entry): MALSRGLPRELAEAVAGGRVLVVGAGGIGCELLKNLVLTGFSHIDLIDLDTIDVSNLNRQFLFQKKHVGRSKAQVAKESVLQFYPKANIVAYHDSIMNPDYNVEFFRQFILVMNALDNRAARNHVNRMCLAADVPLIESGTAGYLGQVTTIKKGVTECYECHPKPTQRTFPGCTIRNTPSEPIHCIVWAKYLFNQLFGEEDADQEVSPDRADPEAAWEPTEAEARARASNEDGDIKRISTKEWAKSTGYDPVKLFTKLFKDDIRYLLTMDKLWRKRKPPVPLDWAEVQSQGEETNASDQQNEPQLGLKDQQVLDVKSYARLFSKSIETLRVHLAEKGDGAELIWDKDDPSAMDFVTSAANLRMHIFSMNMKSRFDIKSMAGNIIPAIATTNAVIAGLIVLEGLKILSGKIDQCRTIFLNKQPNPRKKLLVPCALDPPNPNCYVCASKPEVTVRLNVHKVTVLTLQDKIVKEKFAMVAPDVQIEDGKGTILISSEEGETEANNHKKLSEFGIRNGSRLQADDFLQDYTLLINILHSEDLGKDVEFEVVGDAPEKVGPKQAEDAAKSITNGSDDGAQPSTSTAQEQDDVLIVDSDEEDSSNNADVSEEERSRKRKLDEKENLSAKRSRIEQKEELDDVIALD
Sequence (Q9UBE0 whole entry partner): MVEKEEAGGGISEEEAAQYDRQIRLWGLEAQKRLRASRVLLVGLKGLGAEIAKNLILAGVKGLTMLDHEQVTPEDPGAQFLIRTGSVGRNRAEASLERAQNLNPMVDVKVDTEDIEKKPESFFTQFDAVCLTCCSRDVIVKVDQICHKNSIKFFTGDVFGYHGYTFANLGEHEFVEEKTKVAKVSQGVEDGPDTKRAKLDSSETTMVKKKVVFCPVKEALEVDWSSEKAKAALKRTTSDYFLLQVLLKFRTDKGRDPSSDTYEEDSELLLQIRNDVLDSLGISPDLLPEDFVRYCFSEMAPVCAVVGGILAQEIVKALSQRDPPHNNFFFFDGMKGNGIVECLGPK
Experiment: SAE HTRF enzyme assay
Assay type: biochemical
Conditions: Concentration 0.111 μM
recordedMetric: Percent Inhibition

[
  {
    "compound": "NS(=O)(=O)OC[C@H]1C[C@@H](Nc2ncncc2C(=O)c2cc([C@]3(c4cccc(Cl)c4)CCO3)c(Cl)s2)C[C@@H]1O (mixture of isomers)",
    "recordedMetric": "Percent Inhibition",
    "measuredNumber": 99
  },
  {
    "compound": "Cc1sc(C(=O)c2cncnc2N[C@@H]2C[C@H](COS(N)(=O)=O)[C@@H](O)C2)cc1[C@H](C)c1cccc(Cl)c1 (mixture of isomers) [I-135]",
    "recordedMetric": "Percent Inhibition",
    "measuredNumber": 94
  },
  {
    "compound": "N[C@H](c1cccc(Cl)c1)c1csc(C(=O)c2cncnc2N[C@@H]2C[C@H](COS(N)(=O)=O)[C@@H](O)C2)c1 (single isomer, unassigned) [I-36b]",
    "recordedMetric": "Percent Inhibition",
    "measuredNumber": 99
  }
]

###

The following compounds are shown together with reported IC50 values.
Biological target: recombinant human SAE enzyme (Homo sapiens (Human))
Assay: SAE HTRF enzyme assay
Format: biochemical
Conditions: class symbols A/B/C
recordedMetric: IC50

[
  {
    "compound": "CC(N)(c1cccc(Cl)c1)c1csc(C(=O)c2cncnc2N[C@@H]2C[C@H](COS(N)(=O)=O)[C@@H](O)[C@H]2O)c1 (single isomer, unassigned) [I-8a]",
    "testSystem": "recombinant human SAE enzyme (Homo sapiens (Human))",
    "recordedMetric": "IC50",
    "result": "< 10 nM"
  },
  {
    "compound": "Cc1sc(C(=O)c2cncnc2N[C@@H]2C[C@H](COS(N)(=O)=O)[C@@H](O)C2)cc1Cc1cccc(Br)c1",
    "testSystem": "recombinant human SAE enzyme (Homo sapiens (Human))",
    "recordedMetric": "IC50",
    "result": "< 10 nM"
  },
  {
    "compound": "N[C@@H](c1cccc(Br)n1)c1cc(C(=O)c2cncnc2N[C@@H]2C[C@H](COS(N)(=O)=O)[C@@H](O)[C@H]2O)sc1Cl (single isomer, unassigned) [I-10b]",
    "testSystem": "recombinant human SAE enzyme (Homo sapiens (Human))",
    "recordedMetric": "IC50",
    "result": "< 10 nM"
  },
  {
    "compound": "COc1cccc(Cc2csc(C(=O)c3cncnc3N[C@@H]3C[C@H](COS(N)(=O)=O)[C@@H](O)C3)c2)c1",
    "testSystem": "recombinant human SAE enzyme (Homo sapiens (Human))",
    "recordedMetric": "IC50",
    "result": "< 10 nM"
  },
  {
    "compound": "C[C@H](O)c1cc(C(=O)c2cncnc2N[C@@H]2C[C@H](COS(N)(=O)=O)[C@@H](O)C2)sc1Cl (mixture of isomers)",
    "testSystem": "recombinant human SAE enzyme (Homo sapiens (Human))",
    "recordedMetric": "IC50",
    "result": "100 to 1000 nM"
  },
  {
    "compound": "NS(=O)(=O)OC[C@H]1C[C@@H](Nc2ncncc2C(=O)c2cc(Cc3cncc(Cl)c3)cs2)C[C@@H]1O",
    "testSystem": "recombinant human SAE enzyme (Homo sapiens (Human))",
    "recordedMetric": "IC50",
    "result": "100 to 1000 nM"
  },
  {
    "compound": "N#Cc1sc(C(=O)c2cncnc2N[C@@H]2C[C@H](COS(N)(=O)=O)[C@@H](O)C2)cc1Cc1cccc(Cl)c1",
    "testSystem": "recombinant human SAE enzyme (Homo sapiens (Human))",
    "recordedMetric": "IC50",
    "result": "10 to 100 nM"
  },
  {
    "compound": "NS(=O)(=O)OC[C@H]1C[C@@H](Nc2ncncc2C(=O)c2cc([C@@H](O)c3cccc(Cl)c3)co2)C[C@@H]1O.NS(=O)(=O)OC[C@H]1C[C@@H](Nc2ncncc2C(=O)c2cc([C@H](O)c3cccc(Cl)c3)co2)C[C@@H]1O (mixture of isomers)",
    "testSystem": "recombinant human SAE enzyme (Homo sapiens (Human))",
    "recordedMetric": "IC50",
    "result": "< 10 nM"
  },
  {
    "compound": "Cc1sc(C(=O)c2cncnc2N[C@@H]2C[C@H](COS(N)(=O)=O)[C@@H](O)[C@H]2O)cc1[C@@H]1NCCc2ccc(Br)cc21 (single isomer, unassigned) [I-247a]",
    "testSystem": "recombinant human SAE enzyme (Homo sapiens (Human))",
    "recordedMetric": "IC50",
    "result": "< 10 nM"
  },
  {
    "compound": "CN(Cc1csc(C(=O)c2cncnc2N[C@@H]2C[C@H](COS(N)(=O)=O)[C@@H](O)C2)c1)c1cccc(Cl)c1",
    "testSystem": "recombinant human SAE enzyme (Homo sapiens (Human))",
    "recordedMetric": "IC50",
    "result": "< 10 nM"
  },
  {
    "compound": "NS(=O)(=O)OC[C@H]1C[C@@H](Nc2ncncc2C(=O)c2cc([C@@H]3OCCc4ccccc43)cs2)C[C@@H]1O (single isomer, unassigned) [I-254a]",
    "testSystem": "recombinant human SAE enzyme (Homo sapiens (Human))",
    "recordedMetric": "IC50",
    "result": "10 to 100 nM"
  },
  {
    "compound": "NS(=O)(=O)OC[C@H]1C[C@@H](Nc2ncncc2C(=O)c2cc([C@H](O)c3cccc(Cl)c3)cs2)C[C@@H]1O (mixture of isomers) [I-4]",
    "testSystem": "recombinant human SAE enzyme (Homo sapiens (Human))",
    "recordedMetric": "IC50",
    "result": "< 10 nM"
  }
]
